Test system: HT29 colon
Test: NCI-60 one-dose screen, 48 h
Settings: 10 µM
The panel holds about 83,000 compounds, 20% with a hit somewhere; the sample as a whole holds those more often. The source made the active and inactive calls. The calls were made as follows: active = growth percent below 10; inactive = the rest.
Returns: one label drawn from active, inactive

NC1=C(Cl)C(=O)c2ccccc2C1=O : inactive
O=C1NC(=O)c2cc([N+](=O)[O-])ccc21 : inactive

Query :: Hello, I am checking results. What call was entered for `O=C(/C=C/c1ccccn1)c1ccccc1` ?
Result :: active

Query :: Field: outcome | Entry: CS(=O)(=O)OC1CC(n2ccc(=O)[nH]c2=O)OC1COC(c1ccccc1)(c1ccccc1)c1ccccc1 (stereo not given)
Result :: inactive

Query :: Lab log entry: `CCO/C=C1\SC(=S)N(c2cccc(O)c2)C1=O` — outcome as called in the assay?
Result :: inactive

Query :: Can you look up the reported call for `O=[N+]([O-])C1=C(c2ccccc2)SC=C(c2ccccc2)S1` for me?
Result :: inactive

Query :: For this molecule, state the assay outcome: CSC1SCC2C(=O)N(C)C(C(C)C)C(=O)OCC(NC(=O)c3cnc4ccccc4n3)C(=O)NC(C)C(=O)N(C)C1C(=O)N(C)C(C(C)C)C(=O)OCC(NC(=O)c1cnc3ccccc3n1)C(=O)NC(C)C(=O)N2C (stereo not given)
Result :: active

Query :: What call does the record list for `CCN1/C(=C/C=C/C=C/c2sc3ccccc3[n+]2CC)Sc2ccccc21` ?
Result :: active

Query :: Kindly provide the recorded test outcome for the following molecule: `CCCCCCCCCCSC(=N)N`
Result :: active

Query :: Returns: the outcome recorded for COc1cccc2c1C(=O)c1c(O)c3c(c(O)c1C2=O)C[C@@](O)(C(=O)CO)C[C@@H]3OC1CC(N)C(O)C(C)O1 (stereo not given in full) in this assay.
Result :: active

Query :: Please indicate how the test categorized `C[n+]1c2cc(N)ccc2cc2ccc(N)cc21` .
Result :: active

Query :: Which outcome was entered for the molecule `Clc1cc(Cl)c(Cl)nn1` in this test?
Result :: inactive

Query :: Per the records of this test, what outcome belongs to `NNc1c2ccccc2nc2ccccc12` ?
Result :: inactive

Query :: GET /call?item= `COc1c(O)cc2oc3cc(O)c(CC=C(C)C)c(O)c3c(=O)c2c1CC=C(C)C` returns the recorded outcome of this test.
Result :: inactive

Query :: Hi, sorry to bother you, what did the test record for O=c1ccn(C2CC(O)C(COC(c3ccccc3)(c3ccccc3)c3ccccc3)O2)c(=O)[nH]1 (stereo not given) ?
Result :: inactive

Query :: Entry COC1OCC(O)C(O)C1O (stereo not given) : call = ?
Result :: inactive

Query :: Lab log entry: `CC(C)(C)CC(C)(C)c1ccc(OCCO)cc1` — outcome as called in the assay?
Result :: inactive

Query :: I'd appreciate the recorded outcome for `Cc1nc(N=C(N)N)nc2ccc3ccccc3c12` from this test.
Result :: active

Query :: Record request — test call for `O=C(/C=C/c1cccnc1)c1ccccc1`
Result :: inactive

Query :: Tell me the assay call for OCC(O)C(O)C(O)C(/C=N/Nc1ccccc1)=N/Nc1ccccc1 (stereo not given) please.
Result :: inactive
